Reference source: the supplement of paper PMC12764529

Assay: folding stability dG unfold from trypsin proteolysis; higher = more stable
observation.type: folding stability dG unfold (kcal/mol)
I only need the number, in kcal/mol, no unit after it.

Completed entries (count: 3):
1. KTITIVVKVPSLEEVEALAAELAKELNLPPGAKVEVKVEYDEETGYVVVTVTVTNPNGEKIEIKIVVELPDS [r1_84_TrROS_Hall] ... 1.86
2. SAGGSAGGSAPKEVVVLDLKISPVPDPRYFPAEFTVYIPENGKPFPVTAVFDPEGGEVTIGSAGGSAGGSAG [r3_1_TrMRF] ... 2.7
3. SAGGSAGGSAGGMMKITIEVDGKKIEITLPPGAELKFDKEKKEIYIRNKKTNEILKLKIKSAGGSAGGSAGG [r7_7_TrROS_Hall] ... 1.9

(Q) Suppose we examine the sequence SAGGATIEIKELGRDEDTWYFLVTDPGSAEAVKDFIEKFIPPDYDAKIKILSVDPETGKVTALIEIPGSAGG [r13_491_TrMRF] ; what folding stability dG unfold value has been reported?
(A) 2.23

====

Experiment: folding stability dG unfold from trypsin proteolysis; higher = more stable
Known folding stability dG unfold of a selection of sequences
Numeric answer only, unit kcal/mol assumed.

Worked cases, folding stability dG unfold given:
1) SAGGSAMLENLPELDIKIKVEYKAEILPDGSLLIPAKIELEIGDKKFEFEAKILINPNGEITIEIGSAGGSA [r15_891_TrMRF] ... 2.97
2) SAGGPEVFVFRDPLTGTWSLAVYDPSTGLWTVTYPDGTVALYRRSGDSWELVEARPVPPAPVDPDLASAGGS [r16_687_TrMRF] ... 3.34
3) SAGGSAGGSAGMKTSVTTPVTLPDGTPAVVTKYDGEVEIIDTGDGTSKVVPLSEVPPKLLSAGGSAGGSAGG [r11_155_JUSTAS] ... 0.678

(Q) Find the recorded folding stability dG unfold belonging to SAGGSMPTLKPDEILTLSSTTEPLPSGGLRGRTVTLKKIPGTGKFVTITKYSYQPPDGPITSATEILLSAGG [r13_263_JUSTAS] and report it.
(A) -0.538

====

Readings of folding stability dG unfold for the listed sequences
Test: folding stability dG unfold from chymotrypsin proteolysis; higher = more stable
Reply with just the number (in kcal/mol).

(Q) Looking for the measured folding stability dG unfold of SAGGSAGGSAGGGMAITTRPGSSEVSTTPVPSDVTASTTTPLASGEPVEVTYERVGDPTLSAGGSAGGSAGG [r7_21_JUSTAS] , can you help?
(A) -0.525

(Q) Follow-up item: SAGGSAGGSPVVAIRAKSREELLAALEALLPPGQKLTPEQRQQLVDTLLANLDVKPGDTILVRSAGGSAGGS [r12_983_TrROS_Hall]
(A) 0.921

(Q) Next entry: SAGGSAGGSSMTFEVVEIERPPGDEIRVLVKREDGREFAEITLPPGASPEEIERAVREAVEAESAGGSAGGS [r12_798_JUSTAS]
(A) 1.55

(Q) Please give the result for SAGGKMVKIKIVVEVKVEEEVKEGEKVETFKVELTIELPEEEVEKLKAELEKLFPDVKIVEIEKVEPSAGGS [r8_490_TrROS_Hall] too.
(A) 3.86

====

# folding stability dG unfold values compiled below
Assay: folding stability dG unfold from trypsin proteolysis; higher = more stable
State the answer as a number, implicitly in kcal/mol.

(Q) Item SMIIPPELGFEEAVELIKELLEPEKTYLVVTGDPETGTLSVARLDPETGEVEVEPLPTTEGESFVAVFEISA [r9_1059_TrMRF] has what recorded folding stability dG unfold?
(A) 1.09

(Q) Try SAGMPSVTVTPVTVTVEGTAPPDLTEEELRADPTYTRTVEIDATVTLYPETGTVTVTLPGGVTVTLPSPSAG [r5_701_JUSTAS] next.
(A) 0.432

(Q) Follow-up entry: SAGGSAPGWYPITYEFEDNNKEIKIEVYYPKEDPMVGVDIEDPDGKVIFTIWFPADNAEKALKEILSAGGSA [r15_940_TrROS]
(A) 1.23

(Q) Same again, this time with SAGGSAGGSMRTLKARITLRGPDGVEYRFEFEIPAGSAEDVVAFLKNLPVPPGWEVELEVLDESAGGSAGGS [r20_162_TrMRF]
(A) 4.42

(Q) Record: SAGGSAGGSAAPTNPVEITLKRPDGTPVKATITFYPDGVKVTVEDGDTTTTSWLSPEEITLSAGGSAGGSAG [r3_373_JUSTAS]
(A) 2.09

====

# maps each entry to its folding stability dG unfold
Assay: folding stability dG unfold (combined trypsin and chymotrypsin); higher = more stable
Field: value (include unit after the number)

Take a look at these entries with their results.
1. EKKTLTVLIEVPPEKLEEALARALELAKALPPGQKLEIEIVNEDGTVVRVTVTVDENGEIHIDVEVLPRPPS [r1_350_TrROS_Hall] ... 2.23 kcal/mol
2. SNPWVEITIYFPMRPDPNGKMQPLSPSELLEELLKQGFPIKDIDIDEVTDNYIPITIRIDAKDGKIEIEWSA [r9_225_TrROS] ... 2.85 kcal/mol
3. SAGGSAGGSMTETVEKTMPSNGATAEITKLPDGSIKVTIKGSNPVIETFPADEPLVIKPGLEGSAGGSAGGS [r12_1003_JUSTAS] ... 0.263 kcal/mol

(Q) Suppose we examine the sequence SAGGSAGGMLEIEFEKPLPNGETLKIKVFFDKDKPEALVEIENPSTNEKKFYNFTSIDEVIEKESAGGSAGG [r6_464_TrMRF] ; what folding stability dG unfold value has been reported?
(A) 1.49 kcal/mol

(Q) Ok, now SAGMTIEIEIPASTSAEEAVERVEAIVEEVRKAGKKFELTIKTSDPALAAAVRAALEAAGVPVTVEVDSAGG [r19_268_JUSTAS]
(A) 3.28 kcal/mol

(Q) How about this sequence: SAGGSAGGSAGGMTLRIRVRNKDGKVLEIEVEVDEDKTPEEVARELAKKLNVEKVEIFPSAGGSAGGSAGGS [r10_400_TrROS_Hall]
(A) 2.28 kcal/mol

(Q) What about SAGGSAMTVTLIVGDKPITIPLTASLSDIKAALEEHPDVPVYIILPNGKRIEMKVSDLIKMMEKAGSAGGSA [r15_36_TrMRF] ?
(A) 3.16 kcal/mol

(Q) Entry SAGGSASMIFADDPAQAEAYVKPLFPNGPPFDIVELSEEEGKELVEKLKKEGKPYKVIVIKDPSKPSAGGSA [r15_567_JUSTAS] please
(A) 0.341 kcal/mol

(Q) Let us now turn to SAGGSAKKKIKIKVKNKDGSVYELEFDEENGIVKITYKDGKKEELSVEELKKLPLPKNITEVEIVPSAGGSA [r15_1043_TrROS_Hall]
(A) 2.25 kcal/mol

====

Experiment: folding stability dG unfold from chymotrypsin proteolysis; higher = more stable
observation.type: folding stability dG unfold (kcal/mol)
Unit kcal/mol implied. Number only.

1. SAGGMKTLKIKIKVPEDEEKAEELAKKLEELFGLKVEVEKKDGELTITVEVSEEVRELLKELGVEIEPSAGG [r13_156_TrROS_Hall] ... 4.15
2. SAGATPTTLSFTDPEGKKIANVTVTVLPGGRQEASITNSDSNESYTAEYDPATGTWTLTFPDGTTLTVGSAG [r5_809_JUSTAS] ... 1.75
3. SAGGSAGGEIRERLRELIEQLPEEELVVRIRRNGEEVELTFRTREDLEAALEANPEAEIEIVRRSAGGSAGG [r6_421_TrROS_Hall] ... 3.35
4. SAGGMPEDMKLKFKVVDFRPHPHPDGYQIVELFYNDKLLRRLRVPPGLAVKLAKELPEDVALVTLPESAGGS [r8_41_TrMRF] ... 1.53
5. SAGGSAGGSAGGMPADEKVTTSPEIVTLPNGTRVVVTKSTSPDPSVSSTSVTVLPPNVPPSAGGSAGGSAGG [r11_338_JUSTAS] ... 1.38

(Q) May I ask what folding stability dG unfold has been recorded for SAGGMPPENIKEITEVERNPDGMKEITIEMEDPELAKQGNPEQVDQMAEWLQDEFPDRGIPVTIEPGPSAGG [r13_243_TrROS] ?
(A) -0.435

(Q) Could you do the same for SAGMKPIVELLKKEPNPKVILVEVFPTGGEAKIVVKDKVYVFPVKPGPGRRVLVVDPDGKILEVKPFPVSAG [r5_329_TrMRF] , please?
(A) 0.709

(Q) Note, next up: SKTIYIPKNVPIDYILKVVKEAEKKGKPVKIVIETYNNPKVIEALKKAGYKVEIKEDKKKKITLIVVYPESA [r9_759_TrMRF]
(A) 4.35

(Q) SAGGSAGGSGKPLLLVRLKIRNKETGEEETVVLEADSLDEALARLPPGAEIVSIEVVRLDLPPSAGGSAGGS [r12_208_TrROS_Hall] , same question.
(A) 5.38

(Q) Next sequence: SAGGSAGGSAMKTYTLEQIEELLKSLPEEEIEEVKIEEKEGKKVIYVKTKDGREIEIVVEPSAGGSAGGSAG [r3_291_TrROS_Hall]
(A) 3.19

(Q) Same question, SAGGSAGGSAGGMVIRLEDGRTLVFETREEAEEAAKALAEELGLKEVKVEIVEVPLEELPSAGGSAGGSAGG [r7_839_TrROS_Hall] this time
(A) 2.6

(Q) Then what about the sequence SAGGSAGGSNPRYRIVLPISREQLEELGLTPEQVAEAIREAFPSLSPDTRFYFPEDGNLVVVGSAGGSAGGS [r12_50_TrMRF] ?
(A) 1.16

(Q) Could you do the same for SAMELRVESELFPDGRRRLVVLDPGDGAPVVTFIDLEPVDGGYRASITQIGPDPAVAERVARELGIPPESAG [r14_545_TrMRF] , please?
(A) 1.17

(Q) Repeat for the following sequence: SAGGEIKIKKSKDGKTLYIEIKIKAGEKVKLKLTITLPNGKKAEITSVEIIEKNGELYIKVEIKIKDSAGGS [r16_499_TrROS_Hall]
(A) 4.67
